The values you see were collected from patent US10245257B2.

# targetSystem: CYP2C9 (Homo sapiens)
# Sequence (P11712 whole entry): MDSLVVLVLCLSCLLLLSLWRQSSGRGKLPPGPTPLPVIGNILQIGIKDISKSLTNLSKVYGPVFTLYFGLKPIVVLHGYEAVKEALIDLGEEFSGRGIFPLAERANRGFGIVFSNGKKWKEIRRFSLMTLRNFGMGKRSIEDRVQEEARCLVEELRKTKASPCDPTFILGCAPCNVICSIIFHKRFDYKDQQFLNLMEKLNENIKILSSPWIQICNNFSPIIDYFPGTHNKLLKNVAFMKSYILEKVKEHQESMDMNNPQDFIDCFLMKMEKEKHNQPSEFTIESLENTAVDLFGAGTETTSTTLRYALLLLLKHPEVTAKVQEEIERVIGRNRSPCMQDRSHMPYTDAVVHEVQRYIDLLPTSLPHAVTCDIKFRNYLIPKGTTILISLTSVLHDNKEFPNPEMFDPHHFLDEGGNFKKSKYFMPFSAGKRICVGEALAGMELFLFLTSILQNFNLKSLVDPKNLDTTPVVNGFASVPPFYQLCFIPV
valueType: Ki

> print(dat)
                            molecularstring           targetsystem  measuredresult
1  C=C1CCN([C@H](C)[C@](O)(Cn2cncn2)c2ccc(F)cc2F)CC1  CYP2C9 (Homo sapiens)          261 nM

----------
# assayExplanation: Pharmacokinetic study in severe onychomycosis patients, once daily for 28 days
# Assay type: in vivo, human
# measurementParameters: both sexes, human, plasma, topical, 0.42 mL/subject, onychomycosis patients, Day 28, plasma, mean +/- SD
valueType: Cmax (ng/mL)

> print(dat)
                            molecularstring  unittag  measuredresult
1  C=C1CCN([C@H](C)[C@](O)(Cn2cncn2)c2ccc(F)cc2F)CC1    ng/mL            0.67

----------
# assayExplanation: Pharmacokinetic study in healthy volunteers, topical application to all 10 toenails
# Format: in vivo, human
# measurementParameters: human, plasma, topical, 0.42 mL/subject, healthy volunteers, Day 10, value [range]
valueType: Tmax (h)

> print(dat)
                            molecularstring  measuredresult
1  C=C1CCN([C@H](C)[C@](O)(Cn2cncn2)c2ccc(F)cc2F)CC1              10

----------
# assayExplanation: Pharmacokinetic study in healthy volunteers, topical application to all 10 toenails
# Assay type: in vivo, human
# measurementParameters: human, plasma, topical, 0.42 mL/subject; healthy volunteers, day 1; read-out: plasma concentration range
valueType: concentration at 1 day

> print(dat)
                            molecularstring   measuredresult
1  C=C1CCN([C@H](C)[C@](O)(Cn2cncn2)c2ccc(F)cc2F)CC1  0 to 1.11 ng/mL

----------
# assayExplanation: Pharmacokinetic study in severe onychomycosis patients, once daily for 28 days
# Format: in vivo, human
# measurementParameters: both sexes, human, plasma, topical, 0.42 mL/subject, onychomycosis patients, Day 14, mean +/- SD; read-out: AUC24h
valueType: AUC(0-t)

> print(dat)
                            molecularstring  valuetype  measuredresult
1  C=C1CCN([C@H](C)[C@](O)(Cn2cncn2)c2ccc(F)cc2F)CC1   AUC(0-t)    10.9 ng·h/mL

----------
# assayExplanation: Pharmacokinetic study in severe onychomycosis patients, once daily for 28 days
# Assay type: in vivo, human
# measurementParameters: both sexes, human, plasma, topical, 0.42 mL/subject, onychomycosis patients, Day 1
valueType: Tmax (h)

> print(dat)
                                   compound  valuetype  measuredresult
1  C=C1CCN([C@H](C)[C@](O)(Cn2cncn2)c2ccc(F)cc2F)CC1 [efinaconazole]       Tmax            23.9

----------
# assayExplanation: Pharmacokinetic study in severe onychomycosis patients, once daily for 28 days
# Assay type: in vivo, human
# measurementParameters: both sexes, human, plasma, topical, 0.42 mL/subject, onychomycosis patients, Day 28, mean +/- SD; read-out: AUC24h
valueType: AUC(0-t) (ng·h/mL)

> print(dat)
                            molecularstring  measuredresult
1  C=C1CCN([C@H](C)[C@](O)(Cn2cncn2)c2ccc(F)cc2F)CC1            12.2

----------
# assayExplanation: Pharmacokinetic study in healthy volunteers, topical application to all 10 toenails
# Format: in vivo, human
# measurementParameters: human, plasma, topical, 0.42 mL/subject, healthy volunteers, Day 1, value [range]
valueType: Tmax (h)

> print(dat)
                            molecularstring  valuetype  measuredresult
1  C=C1CCN([C@H](C)[C@](O)(Cn2cncn2)c2ccc(F)cc2F)CC1       Tmax              24

----------
# assayExplanation: Pharmacokinetic study in severe onychomycosis patients, once daily for 28 days
# Type: in vivo, human
# measurementParameters: both sexes, human, plasma, topical, 0.42 mL/subject, onychomycosis patients, Day 1, mean +/- SD; read-out: AUC24h
valueType: AUC(0-t)

> print(dat)
                                   compound  measuredresult
1  C=C1CCN([C@H](C)[C@](O)(Cn2cncn2)c2ccc(F)cc2F)CC1 [efinaconazole]    1.79 ng·h/mL

----------
# assayExplanation: Pharmacokinetic study in severe onychomycosis patients, once daily for 28 days
# Format: in vivo, human
# measurementParameters: both sexes, human, plasma, topical, 0.42 mL/subject, onychomycosis patients, Day 28
valueType: Tmax (h)

> print(dat)
                            molecularstring  valuetype  unittag  measuredresult
1  C=C1CCN([C@H](C)[C@](O)(Cn2cncn2)c2ccc(F)cc2F)CC1       Tmax        h              16

----------
# assayExplanation: Pharmacokinetic study in healthy volunteers, topical application to all 10 toenails
# Format: in vivo, human
# measurementParameters: human, plasma, topical, 0.42 mL/subject, healthy volunteers, Day 1 (single dose), plasma, mean +/- SD; read-out: Cmax
valueType: Cmax

> print(dat)
                            molecularstring  measuredresult
1  C=C1CCN([C@H](C)[C@](O)(Cn2cncn2)c2ccc(F)cc2F)CC1     0.382 ng/mL

----------
# assayExplanation: Pharmacokinetic study in healthy volunteers, topical application to all 10 toenails
# Type: in vivo, human
# measurementParameters: human, plasma, topical, 0.42 mL/subject, healthy volunteers, Day 1, mean +/- SD; read-out: AUC24h
valueType: AUC(0-t) (ng·h/mL)

> print(dat)
                                   molecule  unittag  measuredresult
1  C=C1CCN([C@H](C)[C@](O)(Cn2cncn2)c2ccc(F)cc2F)CC1 [efinaconazole]  ng·h/mL            2.64

----------
# assayExplanation: Pharmacokinetic study in severe onychomycosis patients, once daily for 28 days
# Type: in vivo, human
# measurementParameters: both sexes, human, plasma, topical, 0.42 mL/subject, onychomycosis patients, Day 14, plasma, mean +/- SD
valueType: Cmax (ng/mL)

> print(dat)
                            molecularstring  valuetype  measuredresult
1  C=C1CCN([C@H](C)[C@](O)(Cn2cncn2)c2ccc(F)cc2F)CC1       Cmax            0.62
